Values were extracted from patent US20240199676A1.

Each item that follows carries a reported half-life at 2 μM.
experiment: GI S9 stability (Ex. Z), dog intestinal S9; format: in vitro ADME; details: pooled intestinal S9 fractions; dog intestinal S9, 1.0 mg/mL protein, 2 μM substrate, pH 7.4; read-out: GIS9 DOG T½ (per Ex. Z)
measurementKind: half-life at 2 μM (h)

CC(C)(C)C(=O)OC[C@@]1(C#N)O[C@@H](c2ccc3c(N)ncnn23)[C@H](O)[C@@H]1O [Compound 10]; 4.48
CC1(C)CC(C(=O)OC[C@@]2(C#N)O[C@@H](c3ccc4c(N)ncnn34)[C@H](O)[C@@H]2O)C1 [Compound 17]; 0.8
Cc1ccc(C(=O)OC[C@@]2(C#N)O[C@@H](c3ccc4c(N)ncnn34)[C@H](O)[C@@H]2O)cc1 [Compound 14]; 7.1
N#C[C@]1(COC(=O)C2CCC2)O[C@@H](c2ccc3c(N)ncnn23)[C@H](O)[C@@H]1O [Compound 8]; 0.167
CC1(C(=O)OC[C@@]2(C#N)O[C@@H](c3ccc4c(N)ncnn34)[C@H](O)[C@@H]2O)CC1 [Compound 15]; 13.2
CCC(CC)C(=O)Nc1ncnn2c([C@@H]3O[C@](C#N)(COC(=O)C(CC)CC)[C@@H](O)[C@H]3O)ccc12 [Compound 11]; 1.58
CC(C)[C@H](N)C(=O)OC[C@@]1(C#N)O[C@@H](c2ccc3c(N)ncnn23)[C@H](O)[C@@H]1O [Compound 12]; 0.0833
CC(C)(C)CC(=O)OC[C@@]1(C#N)O[C@@H](c2ccc3c(N)ncnn23)[C@H](O)[C@@H]1O [Compound 13]; 12.6
CCC(=O)OC[C@@]1(C#N)O[C@@H](c2ccc3c(N)ncnn23)[C@H](O)[C@@H]1O [Compound 5]; 1.9
N#C[C@]1(COC(=O)C2CC2)O[C@@H](c2ccc3c(N)ncnn23)[C@H](O)[C@@H]1O [Compound 7]; 10.6
N#C[C@]1(COC(=O)C2CCCCC2)O[C@@H](c2ccc3c(N)ncnn23)[C@H](O)[C@@H]1O [Compound 19]; 0.8
CC(=O)OC[C@@]1(C#N)O[C@@H](c2ccc3c(N)ncnn23)[C@H](O)[C@@H]1O [Compound 4]; 0.683
CC(C)CC(=O)OC[C@@]1(C#N)O[C@@H](c2ccc3c(N)ncnn23)[C@H](O)[C@@H]1O [Compound 3]; 8.28
N#C[C@]1(COC(=O)C2CCCC2)O[C@@H](c2ccc3c(N)ncnn23)[C@H](O)[C@@H]1O [Compound 18]; 0.433
N#C[C@]1(COC(=O)CC2CCC2)O[C@@H](c2ccc3c(N)ncnn23)[C@H](O)[C@@H]1O [Compound 16]; 1.48

###

test system: Human Rhinovirus 16 (HRV16) in H1-HeLa cells; test: H1-HeLa HRV-CTG 384-well Assay (Ex. Y), HRV16; format: cell-based; details: Rhinovirus A, 96 h; H1-HeLa cells, HRV16 MOI 0.25, 4 days, Celltiter-Glo; read-out: EC50 H1-HeLa_HRV16_HRV-CTG 384-well Assay (per Ex. Y)
measurementKind: EC50 (µM)

CCCC(=O)OC[C@@]1(C#N)O[C@@H](c2ccc3c(N)ncnn23)[C@H](O)[C@@H]1O; 8.23
CC(C)C(=O)OC[C@@]1(C#N)O[C@@H](c2ccc3c(N)ncnn23)[C@H](OC(=O)C(C)C)[C@@H]1OC(=O)C(C)C; 50
CCC(C)(C)CC(=O)OC[C@@]1(C#N)O[C@@H](c2ccc3c(N)ncnn23)[C@H](O)[C@@H]1O; 50
N#C[C@]1(COC(=O)C2CCCC2)O[C@@H](c2ccc3c(N)ncnn23)[C@H](O)[C@@H]1O; 8.01
N#C[C@]1(COC(=O)c2ccccc2)O[C@@H](c2ccc3c(N)ncnn23)[C@H](O)[C@@H]1O; 28.3
CC(=O)OC[C@@]1(C#N)O[C@@H](c2ccc3c(N)ncnn23)[C@H](O)[C@@H]1O; 10.1
CC(=O)OC[C@@]1(C#N)O[C@@H](c2ccc3c(N)ncnn23)[C@H](OC(C)=O)[C@@H]1OC(C)=O; 23.9
